Numbers sourced from the supplement of paper PMC9013687.

Would you mind telling me the reported EC20 Body length Decrease of each entry?
test system: Danio rerio embryo; test: EC20 Body length_Decrease; higher = less potent; conditions: exposure time: 2 dpf
Give bare numbers, in µM.

Known results for compounds:
CNCCC=C1c2ccccc2CCc2ccccc21 | 36.3
CN(Cc1cnc2nc(N)nc(N)c2n1)c1ccc(C(=O)N[C@@H](CCC(=O)O)C(=O)O)cc1 [Methotrexate] | 180
CCCCC(O)(Cn1cncn1)c1ccc(Cl)cc1Cl (stereo unspecified) | 23.5
CSc1nc2cc(Cl)c(Oc3cccc(Cl)c3Cl)cc2[nH]1 | 0.85
O=C(O)Cc1ccccc1Nc1c(Cl)cccc1Cl | 12.1
CC1=C(/C=C/C(C)=C/C=C/C(C)=C/C(=O)O)C(C)(C)CCC1 [all-trans retinoic acid] | 0.033
CC(=O)Nc1ccc(O)cc1 | 3500
COc1cccc2c1C(=O)c1c(O)c3c(c(O)c1C2=O)C[C@@](O)(C(C)=O)C[C@@H]3O[C@H]1C[C@H](N)[C@H](O)[C@H](C)O1 | 80.4
CCO/N=C(\CC)C1=C(O)CC(c2c(C)cc(C)cc2C)CC1=O (stereo unspecified) | 45.5
CC1(C)OC(=O)C(OCC2CC2)=C1c1ccc(S(C)(=O)=O)cc1 | 82.7

Now examine the next entry.
QUERY: Requested read-out: EC20 Body length Decrease. Entry: O=C(O)CCc1nc(-c2ccccc2)c(-c2ccccc2)o1
RESULT: 29.3

---

system: Danio rerio embryo; assay: EC10 Yolk sac size_Increase; higher = less potent; conditions: exposure time: 4 dpf
Assign criterion met whenever EC10 Yolk sac size Increase does not fall below 20 µM; assign criterion not met whenever it does.

Record excerpt, results attached:
Cc1ccc(-c2cc(C(F)(F)F)nn2-c2ccc(S(N)(=O)=O)cc2)cc1 | criterion not met
CSc1nc2cc(Cl)c(Oc3cccc(Cl)c3Cl)cc2[nH]1 | criterion not met

QUERY: Threshold query (EC10 Yolk sac size Increase >= 20 µM) on CC(C)(C)C(O)/C(=C/c1ccc(Cl)cc1Cl)n1cncn1 (stereo unspecified)
RESULT: criterion not met

QUERY: Would you say CCCCC(O)(Cn1cncn1)c1ccc(Cl)cc1Cl (stereo unspecified) shows EC10 Yolk sac size Increase at minimum 20 µM?
RESULT: criterion not met

QUERY: For this compound, is measured EC10 Yolk sac size Increase 20 µM or higher? CNCCC=C1c2ccccc2CCc2ccccc21
RESULT: criterion not met

QUERY: Please tell me: is the compound CC1(C)OC(=O)C(OCC2CC2)=C1c1ccc(S(C)(=O)=O)cc1 at or over 20 µM in terms of EC10 Yolk sac size Increase?
RESULT: criterion met

QUERY: Answer whether EC10 Yolk sac size Increase of O=C(O)CCc1nc(-c2ccccc2)c(-c2ccccc2)o1 is greater than or equal to 20 µM.
RESULT: criterion not met

QUERY: Could you please find out whether CC1(C)O[C@@H]2[C@@H](CO[C@@]3(COS(N)(=O)=O)OC(C)(C)O[C@@H]23)O1 [Topiramate] has EC10 Yolk sac size Increase that meets 20 µM or exceeds it?
RESULT: criterion met

QUERY: Please tell me: is the compound CCOC(=O)N1CCC(=C2c3ccc(Cl)cc3CCc3cccnc32)CC1 at or over 20 µM in terms of EC10 Yolk sac size Increase?
RESULT: criterion not met

QUERY: Can CCO/N=C(\CC)C1=C(O)CC(c2c(C)cc(C)cc2C)CC1=O (stereo unspecified) be said to have EC10 Yolk sac size Increase at or above 20 µM?
RESULT: criterion met

QUERY: Tell me whether EC10 Yolk sac size Increase is at least 20 µM here: C[Si](Cn1cncn1)(c1ccc(F)cc1)c1ccc(F)cc1
RESULT: criterion not met

QUERY: Hello, I need to know if CCCCOC(=O)[C@@H](C)Oc1ccc(Oc2ccc(C(F)(F)F)cn2)cc1 has measured EC10 Yolk sac size Increase not below 20 µM. Thanks!
RESULT: criterion not met

QUERY: Has CCCNCC(O)COc1ccccc1C(=O)CCc1ccccc1 (stereo unspecified) a recorded EC10 Yolk sac size Increase greater than or equal to 20 µM?
RESULT: criterion not met

QUERY: hey, is EC10 Yolk sac size Increase for this one >= 20 µM? CC(C)(C)C(O)C(Oc1ccc(Cl)cc1)n1cncn1 (stereo unspecified)
RESULT: criterion met

QUERY: Tell me whether EC10 Yolk sac size Increase is at least 20 µM here: CC1=C(/C=C/C(C)=C/C=C/C(C)=C/C(=O)O)C(C)(C)CCC1 [all-trans retinoic acid]
RESULT: criterion not met

---

system: Danio rerio embryo; assay: EC10 Lack of SB; higher = less potent; conditions: exposure time: 4 dpf
Task for the reader: assign each of the following molecules its reported EC10 Lack of SB.
Give bare numbers, in µM.

Answered cases to consult:
CC1=C(/C=C/C(C)=C/C=C/C(C)=C/C(=O)O)C(C)(C)CCC1 [all-trans retinoic acid] | 0.012
O=C(O)CCc1nc(-c2ccccc2)c(-c2ccccc2)o1 [Oxaprozin] | 7.85

// batch mode: one EC10 Lack of SB value per listed entry
1. COc1cccc2c1C(=O)c1c(O)c3c(c(O)c1C2=O)C[C@@](O)(C(C)=O)C[C@@H]3O[C@H]1C[C@H](N)[C@H](O)[C@H](C)O1 [Daunorubicin]
2. Cc1ccc(-c2cc(C(F)(F)F)nn2-c2ccc(S(N)(=O)=O)cc2)cc1 [Celecoxib]
3. CCCCOC(=O)[C@@H](C)Oc1ccc(Oc2ccc(C(F)(F)F)cn2)cc1 [fluazifop-p-butyl]
4. CNCCC=C1c2ccccc2CCc2ccccc21 [Nortriptyline]
5. Cc1cc2c(s1)Nc1ccccc1N=C2N1CCN(C)CC1 [Olanzapine]
6. C[C@@H]1C[C@H]2[C@@H]3CCC4=CC(=O)C=C[C@]4(C)[C@@]3(F)[C@@H](O)C[C@]2(C)[C@@]1(O)C(=O)CO [Dexamethasone]

RESULT:
1: 13.3; 2: 8.08; 3: 0.734; 4: 4.59; 5: 8.09; 6: 0.944

---

test system: Danio rerio embryo; test: EC20 Body length_Decrease; higher = less potent; details: exposure time: 4 dpf
# if value of EC20 Body length Decrease reaches 20 µM, tag True; if it stays below, tag False

Please review the following examples before continuing.
C[Si](Cn1cncn1)(c1ccc(F)cc1)c1ccc(F)cc1 | False
CC(C)(C)C(O)C(Oc1ccc(Cl)cc1)n1cncn1 (stereo not drawn) | True
CSc1nc2cc(Cl)c(Oc3cccc(Cl)c3Cl)cc2[nH]1 | False
CC(=O)Nc1ccc(O)cc1 | True
CN(Cc1cnc2nc(N)nc(N)c2n1)c1ccc(C(=O)N[C@@H](CCC(=O)O)C(=O)O)cc1 [Methotrexate] | True

QUERY: Determine whether this compound has EC20 Body length Decrease no lower than 20 µM: O=C(O)Cc1ccccc1Nc1c(Cl)cccc1Cl
RESULT: False

QUERY: Given the entry O=C(O)CCc1nc(-c2ccccc2)c(-c2ccccc2)o1 , answer whether its EC20 Body length Decrease meets or surpasses 20 µM.
RESULT: True

QUERY: Is EC20 Body length Decrease for CC1(C)OC(=O)C(OCC2CC2)=C1c1ccc(S(C)(=O)=O)cc1 at or above 20 µM?
RESULT: True

---

Provide the reported EC20 Bladder size Decrease of each item.
test system: Danio rerio embryo; assay: EC20 Bladder size_Decrease; higher = less potent; settings: exposure time: 4 dpf
One number for each entry, in µM.

Consider the worked cases shown below.
CC(C)(C)C(O)/C(=C/c1ccc(Cl)cc1Cl)n1cncn1 (stereo not drawn) [Diniconazole] | 1.92
COC(=O)Nc1nc2cc(Sc3ccccc3)ccc2[nH]1 [Fenbendazole] | 0.047
CC1(C)OC(=O)C(OCC2CC2)=C1c1ccc(S(C)(=O)=O)cc1 [Firocoxib] | 39
CCCCOC(=O)[C@@H](C)Oc1ccc(Oc2ccc(C(F)(F)F)cn2)cc1 [fluazifop-p-butyl] | 0.994
O=C(O)CCc1nc(-c2ccccc2)c(-c2ccccc2)o1 [Oxaprozin] | 11.8

For each of the compounds below, state EC20 Bladder size Decrease.
1. CC(=O)OCC(=O)[C@@]1(OC(C)=O)[C@@H](C)C[C@H]2[C@@H]3C[C@H](F)C4=CC(=O)C=C[C@]4(C)[C@@]3(F)[C@@H](O)C[C@@]21C [diflorasone diacetate]
2. COc1cccc2c1C(=O)c1c(O)c3c(c(O)c1C2=O)C[C@@](O)(C(C)=O)C[C@@H]3O[C@H]1C[C@H](N)[C@H](O)[C@H](C)O1 [Daunorubicin]
3. CCCCC(O)(Cn1cncn1)c1ccc(Cl)cc1Cl (stereo not drawn) [Hexaconazole]

RESULT:
[0.066, 17.5, 7.52]

---

tested on: Danio rerio embryo; experiment: EC20 Mandibular arch distance_Decrease; higher = less potent; details: exposure time: 4 dpf
QUANTITY MEASURED: EC20 Mandibular arch distance Decrease (µM)
Numbers only, in µM.

Items follow; give EC20 Mandibular arch distance Decrease for each.
1. CC(C)(C)C(O)/C(=C/c1ccc(Cl)cc1Cl)n1cncn1 (centres undefined)
2. CCCCC(O)(Cn1cncn1)c1ccc(Cl)cc1Cl (centres undefined)
3. CC(C)(C)C(O)C(Oc1ccc(Cl)cc1)n1cncn1 (centres undefined)
4. C[Si](Cn1cncn1)(c1ccc(F)cc1)c1ccc(F)cc1

RESULT:
1: 3.04; 2: 24.9; 3: 133; 4: 7.71
